Assay: microbe, parasite or virus in culture
Conditions: Mycobacterium tuberculosis, 96 h, read-out: pIC50 (converted)
A collection of compounds and their measured IC50

CC(CNC(=O)c1ccncc1)c1ccccc1 (configuration not stated) | > 501 µM
CC(C)Oc1ccc(S(=O)(=O)N(C)C(C)CN)cc1 (configuration not stated) | 273 µM
COc1ccc(-n2cc(CNC(=O)c3ccccn3)nn2)cc1 | > 50.1 µM
CCOCC(C)Nc1ccc(C)c(S(C)(=O)=O)c1 (configuration not stated) | 221 µM
O=C(CC1Sc2ccc(Cl)cc2NC1=O)OCCO (configuration not stated) | 286 µM

// IC50 lookup, compound = "COc1cc(C(=O)NCC2CCC2)cc2c1OCCO2" , result: 321 µM

Entry "CN(CCc1ccccc1)Cc1nc(Cc2cccc(F)c2)no1" , IC50 reported as 33.8 µM

Per the record, COc1ccc(C)cc1CN1CCn2cccc2C1C (configuration not stated) has IC50 of 45.6 µM

// CCCN(C)S(=O)(=O)NC(C)c1ccc(OC)c(F)c1 (configuration not stated) : IC50 value = 163 µM

Noted for CC(=O)N1CCCC(c2cnc(-c3c(C)nn(C)c3C)cn2)C1 (configuration not stated) : its IC50 reads > 50.1 µM

// sample "CN(CCc1nc(-c2cccc(Cl)c2)no1)CCn1cccn1" , its IC50 was 41.6 µM

Record "CNC(=O)[C@@H](C)NC(=O)c1ccc(-c2ccc(C)o2)s1" . Reported IC50: 278 µM

----------
Experiment: microbe, parasite or virus in culture
Settings: Mycobacterium tuberculosis, 72 h, read-out: pIC50 (converted)
Result type: IC50 (µM)
Answer in µM, number only, no unit symbol.

Kindly note the recorded IC50 for COc1ccc(C2CCCN2S(=O)(=O)N(C)CC(C)C)cc1 (stereo unspecified) , which is 31.2

// field: IC50; key: "O=C(NCCc1c[nH]c2ccc(F)cc12)C1(n2cnnn2)CCCCC1" ; value = 46.3

----------
# key: entry, value: IC50
Assay: microbe, parasite or virus in culture
Conditions: Mycobacterium tuberculosis, 72 h, read-out: pIC50 (converted)
// return numeric value only (unit: µM, not printed)

Answered cases to consult:
CCOc1ccc(CNC(=O)CCn2cccn2)cc1 | 148
COc1ccc(CCN)c(OC)c1OC | 36.1
NCCCc1nc(-c2ccc(F)cc2)no1 | 163
Cn1c(C2CC2)nc2c1CCN(Cc1nc(-c3ccsc3)no1)C2 | 16.2
O=C(Nc1ccc(F)c(Cl)c1)N1CCC(O)C1 (configuration not stated) | 212
NCc1cc(N[C@H](CO)CC2CCCCC2)ncn1 | 296
CC(C)Oc1ccc(CNC(=O)N2CCCC2)cn1 | 126
CN(C)S(=O)(=O)N1CCCC1COc1ccccc1 (configuration not stated) | 360

get_value(item= CCC(C)C(=O)NCCNc1ccc(C(F)(F)F)cn1 (configuration not stated) , readout=IC50) returns 51.5

Briefly, IC50 measured for CCOC(=O)N1CCN(C(=O)C2CC(=O)N(c3ccccc3Br)C2)CC1 (configuration not stated) : 39.8

----------
Recorded measurements of IC50, one per entry
Assay: microbe, parasite or virus in culture
Details: Mycobacterium tuberculosis, 72 h, read-out: pIC50 (converted)
Report the value in µM with no unit label.

CCOc1ccc(-c2cc(N)[nH]n2)cc1 | 232
Cc1cccc(OCC(O)CN)c1 (centres undefined) | 179
CSCc1cccc(CNC(=O)c2cc[nH]n2)c1 | 308
CCOc1ccc(Cl)cc1CCNS(=O)(=O)N(C)C | 245
CC(C)Cn1ccnc1CNc1ncccc1F | 307
CCCN1CCN(C(=O)COc2ccccc2)CC1 | 33.3

Query "CCNC(=O)c1cc(N2CCC(COC)CC2)ccn1" yields IC50 of 125

Field IC50 (entry COc1ccc(C)cc1CN1CCn2cccc2C1C (centres undefined) ) reads 18.5

----------
Test: microbe, parasite or virus in culture
Conditions: Mycobacterium tuberculosis, 96 h, read-out: pIC50 (converted)
Result type: IC50 (µM)
Give a bare numeral; the unit µM is implied.

CCC1(CC)CN(C(=O)NCCC(C)C)CCS1(=O)=O | 407
COc1cccc(N2CCC(CN)C2)c1 (configuration not stated) | 290
COc1ccc(CN2C[C@H](O)[C@@H](N(C)C)C2)c(C)c1C | 349
Cc1ccc2c(c1)nc(CN)n2C | 348
c1cncc(-c2ccc3c(c2)CCC32CCN(Cc3nccs3)CC2)c1 | 36.3
Cc1cnn(CCNCc2nccn2C)c1 | 294
O=C(Nc1ccnc(CO)c1)c1ccc(F)cc1I | 433
COC(=O)c1cnc(/C=C/c2ccc(C(=O)O)cc2)s1 | 27.3
CCNc1cccc(OC)c1 | 144
N#Cc1cccnc1NC1CCN(c2ccccc2OC(F)F)C1=O (configuration not stated) | 1.27

// switching to the query compound
Data point: "Fc1ccccc1OC1CCN(CCn2cc3ccccc3n2)CC1" ; IC50 = 47.9

----------
// values below are reported IC50
Molecular target: Ubiquitin-activating enzyme e1, putative (Leishmania donovani (strain BPK282A1))
Sequence (E9BSI1 whole entry): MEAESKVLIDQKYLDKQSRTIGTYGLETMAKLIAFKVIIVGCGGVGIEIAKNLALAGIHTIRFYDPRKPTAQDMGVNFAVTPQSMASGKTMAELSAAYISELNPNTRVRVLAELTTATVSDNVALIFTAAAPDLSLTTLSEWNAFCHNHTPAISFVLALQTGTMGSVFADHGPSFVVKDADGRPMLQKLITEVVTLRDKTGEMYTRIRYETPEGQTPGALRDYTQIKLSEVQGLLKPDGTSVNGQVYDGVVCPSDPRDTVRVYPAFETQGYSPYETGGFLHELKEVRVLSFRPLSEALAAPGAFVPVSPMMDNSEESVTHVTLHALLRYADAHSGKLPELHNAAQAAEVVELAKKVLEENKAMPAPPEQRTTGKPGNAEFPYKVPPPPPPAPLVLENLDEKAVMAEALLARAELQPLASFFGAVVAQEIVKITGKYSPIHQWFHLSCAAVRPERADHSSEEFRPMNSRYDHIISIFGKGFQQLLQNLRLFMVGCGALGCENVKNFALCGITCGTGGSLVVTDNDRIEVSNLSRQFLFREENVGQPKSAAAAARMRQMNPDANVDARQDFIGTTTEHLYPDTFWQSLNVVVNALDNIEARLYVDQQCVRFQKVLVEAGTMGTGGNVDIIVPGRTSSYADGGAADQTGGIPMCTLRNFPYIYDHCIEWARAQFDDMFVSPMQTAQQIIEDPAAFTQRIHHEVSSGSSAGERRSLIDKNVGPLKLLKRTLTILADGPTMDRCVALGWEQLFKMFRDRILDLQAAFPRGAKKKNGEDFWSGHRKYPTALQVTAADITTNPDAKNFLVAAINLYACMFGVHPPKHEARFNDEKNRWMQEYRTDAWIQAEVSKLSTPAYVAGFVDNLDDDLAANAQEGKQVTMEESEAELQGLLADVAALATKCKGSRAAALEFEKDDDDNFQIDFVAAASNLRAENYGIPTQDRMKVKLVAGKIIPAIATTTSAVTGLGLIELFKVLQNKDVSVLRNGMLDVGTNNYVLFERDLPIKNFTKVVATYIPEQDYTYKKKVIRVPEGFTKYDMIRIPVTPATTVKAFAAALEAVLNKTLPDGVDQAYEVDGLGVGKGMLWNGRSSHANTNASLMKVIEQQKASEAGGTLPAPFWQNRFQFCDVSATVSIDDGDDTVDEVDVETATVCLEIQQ
Experiment: Leishmania donovani Ubiquitin Activating Enzyme (LdE1)

Check out these entries, answers already filled in.
CCCN(C(=O)COC)c1nc2c(s1)CCc1c-2cnn1C | > 100 µM
Cc1ccc(-c2nc(CN3CCc4nn(C)c(=O)cc4C3)co2)cc1 | > 100 µM
Cc1nc(C(C)(C)C)sc1C(=O)NCCNc1ncccc1C#N | > 100 µM
CCCN(C(=O)c1cnccn1)c1nc2c(s1)CCc1c-2cnn1C | > 100 µM
COCCC(=O)N1C[C@@H]2COC[C@]2(COCc2cccnc2)C1 | > 100 µM
Cn1cc(NC(=O)N2CCC(Cc3ccccc3)CC2)ccc1=O | > 100 µM

The reported IC50 value, Ubiquitin-activating enzyme e1, putative (Leishmania donovani (strain BPK282A1)), for "CC(C)N1CCC(Cc2cc(-c3ccccc3C(=O)O)ncn2)CC1" reads > 100 µM

Summary line: "COCc1nc2cc(NCc3scnc3C)ccc2o1" , Ubiquitin-activating enzyme e1, putative (Leishmania donovani (strain BPK282A1)), reported IC50 = > 100 µM

# "Cn1nc2c(cc1=O)CN(Cc1nnc(-c3ccco3)o1)CC2" with Ubiquitin-activating enzyme e1, putative (Leishmania donovani (strain BPK282A1)): IC50 is > 100 µM

IC50 value, target or system Ubiquitin-activating enzyme e1, putative (Leishmania donovani (strain BPK282A1)), for CC(C)N1CCC(Cc2cc(-c3cccc(C(=O)O)c3)ncn2)C1 (stereo not drawn) : > 100 µM

Short answer on Ubiquitin-activating enzyme e1, putative (Leishmania donovani (strain BPK282A1)) for COc1ccc(-c2noc(CNC(C)Cn3cccn3)n2)c(OC)c1 (stereo not drawn) , IC50: > 100 µM
